protocol text: yeast display, Sf9 membrane polyspecificity reagent, FACS + sequencing; frameworks hold sequencing errors
endpoint: polyreactivity (PSR sort gate)

Would you please look over these solved cases?
Input: Give its polyreactivity (PSR sort gate) value. Item: `QVQLVESGGGLVQAGGSLRLSCAASGIIFPYNTMGWYRQAPGKERELVASIDDGGSTNYADSVKGRFTISRDNAKNTVYLQMNSLKPEDTAVYYCAADPYWFFPHYDSWGQGTQVTVSS`
Output: low polyreactivity

Input: Give its polyreactivity (PSR sort gate) value. Item: `QVQLEESGGGLVQAGGSLRLSCAASGSTFYGYAMGWNRQAPGKERELVAAITRSGGSTYYADSVKGRFTISRDNAKNTVYLQMNSLKPEDTEVYYCNKYGYKGGVGYDYWGQGTQVTVSS`
Output: high polyreactivity

Input: Give its polyreactivity (PSR sort gate) value. Item: `QVQLVESGGGLVQAGGSLRLSCAASGSIFSYYAMGWYRQAPGKERELVATITSSGSTYADSVKGRFTISRDNAKNTVYLQMNSLKPEDTAVYYCNADSGYSEYWGVDVAYDYWGQGTQVTVSS`
Output: low polyreactivity

Input: Give its polyreactivity (PSR sort gate) value. Item: `QVQLVESGGGLVQAGGSLRLSCAASGSILGYYAMGWYRQEPGKERELVAAISGRGGSTYYADSVKGRFTISRDNAKNSVYLHMNSLKPEDTAVYYCAVVWGSYYWGQGGGEYWGQGTQVTVSS`
Output: high polyreactivity

Input: Give its polyreactivity (PSR sort gate) value. Item: `QVQLVESGGGLVQAGGSLRLSCAASGSIFLWNAMGWYRQAPGKERELVAAISSSGGSTYYADSVKGRFTISRDNAKNTVYLQLNSLKPEDTAVYYCAAVSRSYYNSYNYWGQGTQVTVSS`
Output: high polyreactivity

Input: Give its polyreactivity (PSR sort gate) value. Item: `QVQLVESGGGLVQAGGSLRLSCAASGSIFYTNAMGWYRQAPGKERELVAAIRYSGVSTYYADSVKGRFTISRDNAKNTVYLQMNSLKPEDSAVYSCAARGHPFKKSYGSWGQGTQVTVSS`
Output: high polyreactivity

Further cases:
Input: Give its polyreactivity (PSR sort gate) value. Item: `QVQLVESGGGLVQAGGSLRLSCAASGNTFGAYAMGWYRQAPGKERELVAAITWSGGRTYYADSVKGRFTISRDNAKNTVYLQMNSLKPEDTAVYYCAADYGYYRGGVRFGYWGQGTQVTVSS`
Output: high polyreactivity

Input: Give its polyreactivity (PSR sort gate) value. Item: `QVQLVESGGGLVQAGGSLRLSCAASGRIFYSNTMGWYRQAPGKVRELVAAISRRGGSTYYADSVKGRFTISRDNAKTTVYLQMNSLKPEDTALYYCNTGYSTRLHDYWGQGTQVTVSS`
Output: high polyreactivity

Input: Give its polyreactivity (PSR sort gate) value. Item: `QVQLQESGGGLVQAGGSLRLSCAASGFIFARNYMGWNRQAPGKERELVAGIGVGASTNYADSVKGRFTISRDNAKNTVYLQINSLEPEDTAVYYCAVGDTVLGYHYYWGQGTQVTVSI`
Output: low polyreactivity

Input: Give its polyreactivity (PSR sort gate) value. Item: `QVQLVESGGGLVQEGGSLRLSCAASGSTFYSNAMGWYRQARGKEREFLAAISWSGGSTYYADSVKGRFTISRDNAKNTVYFQMNSLKPEDTAVYYCAKKPYYYAFCGYGYWGQGSQVTVSS`
Output: high polyreactivity

Input: Give its polyreactivity (PSR sort gate) value. Item: `QVQLVESGGGLVQAGGSRRLSCAASGSTFYGYAMGWYRQAPGKEREFVAAITTSGGSTYYADSVKGRFTISRDNAKNTVYLQMNSLKPEDTAVYYCARDLYTEYRWGRLTYDYWGQGTQVTVSS`
Output: low polyreactivity
